tested on: RAW264.7; assay: Antiinflammatory activity in mouse RAW264.7 cells assessed as inhibition of LPS-induced NO production incubated 30 mins prior to LPS challenge; assay type: functional, cell-based
readoutLabel: pIC50
One number for each entry, as −log10 of the molar value.

{"columns": ["smilesCode", "testSystem", "pIC50"],
 "data": [
  ["C[C@@H]1O[C@@H](Oc2ccc(CN=C=S)cc2)[C@H](O)[C@H](O)[C@H]1O", "RAW264.7", 4.84],
  ["CC(=O)O[C@@H]1[C@@H](O)[C@@H](O)[C@H](Oc2ccc(CN=C=S)cc2)O[C@H]1C", "RAW264.7", 5.57],
  ["CNC(=N)NCCC[C@H](N)C(=O)O", "RAW264.7", 4.59],
  ["CC(=O)O[C@@H]1[C@@H](O)[C@H](C)O[C@@H](Oc2ccc(CN=C=S)cc2)[C@@H]1O", "RAW264.7", 5.58]
]}

// next entry
// query Missing value: pIC50, RAW264.7, entry CC(=O)O[C@H]1[C@H](Oc2ccc(CN=C=S)cc2)O[C@@H](C)[C@H](O)[C@H]1O . Fill in?
// result 5.78
